Target: T1, human CD71 extracellular domain (human, UniProt P02786 89-760)
T1 construct: also called hCD71; human CD71-ECD
T1 sequence (P02786 89-760): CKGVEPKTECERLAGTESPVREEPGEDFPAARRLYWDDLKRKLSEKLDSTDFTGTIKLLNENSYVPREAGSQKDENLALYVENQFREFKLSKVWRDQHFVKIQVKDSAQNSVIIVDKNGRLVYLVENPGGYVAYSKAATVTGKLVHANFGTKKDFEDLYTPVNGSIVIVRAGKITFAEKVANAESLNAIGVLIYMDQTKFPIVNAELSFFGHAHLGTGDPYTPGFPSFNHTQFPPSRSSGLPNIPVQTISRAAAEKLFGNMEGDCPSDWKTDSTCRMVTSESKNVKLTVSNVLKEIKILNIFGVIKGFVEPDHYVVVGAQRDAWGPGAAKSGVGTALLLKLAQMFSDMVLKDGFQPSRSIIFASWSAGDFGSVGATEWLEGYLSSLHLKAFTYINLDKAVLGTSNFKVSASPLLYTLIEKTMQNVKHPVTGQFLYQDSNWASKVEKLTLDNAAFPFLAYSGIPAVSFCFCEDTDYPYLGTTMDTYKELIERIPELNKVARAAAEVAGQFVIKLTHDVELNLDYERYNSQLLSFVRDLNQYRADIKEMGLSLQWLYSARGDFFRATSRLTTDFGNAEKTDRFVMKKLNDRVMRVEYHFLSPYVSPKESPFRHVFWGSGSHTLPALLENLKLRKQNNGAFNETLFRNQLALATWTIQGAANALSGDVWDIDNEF
Assay: primary ELISA, signal ratio to HSA
Assay Metric: hCD71:HSA

{"Binder": "CD71-binding FN3 domain of SEQ ID NO: 160 (designed binder) MSLPAPKNLVVSRVTEDSARLSWTAPDAAFDSFEIGYFENLYLGEAIVLTVPGSERSYDLTGLKPGTEYWVQIGGVKGGNWSVPLSAIFTT", "Quantitative Readout": 88}

[P] CD71-binding FN3 domain of SEQ ID NO: 213 (designed binder) MSLPAPKNLVVSRVTEDSARLSWTAPDAAFDSFEIGYFENLYLGEAIVLTVPGSERSYDLTGLKPGTEYWVQIGGAKGGNWSAPLSAIFTT
[Q] CD71-binding FN3 domain of SEQ ID NO: 188 (designed binder) MSLPAPKNLVVSRVTEDSARLSWTAPDAAFDSFEIGYWENAYKGEAIVLTVPGSERSYDLTGLKPGTEYVVFIGGVKGGHGSQPLSAIFTT
[R] CD71-binding FN3 domain of SEQ ID NO: 187 (designed binder) MSLPAPKNLVVSRVTEDSARLSWTAPDAAFDSFEIGYWENAYKGEAIVLTVPGSERSYDLTGLKPGTEYRVWIGGVKGGVWSRPLSAIFTT
[ask] Order the records by hCD71:HSA, with each subsequent value no larger than the one before. A complete answer lists every label in the requested sequence.
[reply] P, R, Q
(P: 130, R: 67, Q: 33)
